subjectOfTest: Non-receptor tyrosine-protein kinase TYK2 (Homo sapiens) (UniProt P29597)
Sequence (P29597 whole entry): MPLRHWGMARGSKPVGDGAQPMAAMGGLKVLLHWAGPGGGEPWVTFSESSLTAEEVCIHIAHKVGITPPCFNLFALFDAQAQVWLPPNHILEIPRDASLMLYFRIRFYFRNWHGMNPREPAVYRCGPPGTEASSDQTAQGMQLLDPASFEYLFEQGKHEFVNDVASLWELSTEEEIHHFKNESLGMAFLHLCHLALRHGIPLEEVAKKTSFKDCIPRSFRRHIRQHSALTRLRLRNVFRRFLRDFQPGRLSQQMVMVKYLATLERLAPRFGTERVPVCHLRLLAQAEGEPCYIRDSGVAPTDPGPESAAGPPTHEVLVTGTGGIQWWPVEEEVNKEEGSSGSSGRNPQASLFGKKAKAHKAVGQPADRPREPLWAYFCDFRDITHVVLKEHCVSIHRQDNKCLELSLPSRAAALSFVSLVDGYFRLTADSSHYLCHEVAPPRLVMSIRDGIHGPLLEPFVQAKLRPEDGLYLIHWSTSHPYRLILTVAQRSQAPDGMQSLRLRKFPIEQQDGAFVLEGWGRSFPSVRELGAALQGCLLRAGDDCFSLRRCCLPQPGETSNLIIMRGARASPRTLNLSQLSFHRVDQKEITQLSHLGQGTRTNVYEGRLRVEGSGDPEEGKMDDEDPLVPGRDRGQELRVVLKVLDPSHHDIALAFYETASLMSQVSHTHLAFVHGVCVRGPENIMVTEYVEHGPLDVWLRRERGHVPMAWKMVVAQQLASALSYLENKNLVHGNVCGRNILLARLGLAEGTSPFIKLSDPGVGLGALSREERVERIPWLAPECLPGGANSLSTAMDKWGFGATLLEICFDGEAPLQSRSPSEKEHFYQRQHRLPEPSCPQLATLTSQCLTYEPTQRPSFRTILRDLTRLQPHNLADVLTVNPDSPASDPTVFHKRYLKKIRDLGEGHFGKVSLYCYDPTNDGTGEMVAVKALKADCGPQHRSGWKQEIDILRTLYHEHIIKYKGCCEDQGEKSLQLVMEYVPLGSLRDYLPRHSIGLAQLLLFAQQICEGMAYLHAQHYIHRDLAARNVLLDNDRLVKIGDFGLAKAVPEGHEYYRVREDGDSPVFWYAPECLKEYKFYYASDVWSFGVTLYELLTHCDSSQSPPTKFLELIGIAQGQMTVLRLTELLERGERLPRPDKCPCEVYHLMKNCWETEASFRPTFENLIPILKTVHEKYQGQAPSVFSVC
studyConditions: at 0.1 µM
readoutLabel: inhibition (%)
Write the value in % as a bare number.

Sample answers from the record:
chemicalStructure	inhibition (%)
CCN(CC)S(=O)(=O)c1ccc(OC)c(Nc2ncc(-c3ccccc3)o2)c1	-1.59
COc1cc(Nc2nccc(Nc3ccc4c(C)n[nH]c4c3)n2)cc(OC)c1OC	-1.55
CC(C)COC(=O)c1ccc2c(c1)/C(=C/Nc1ccc(S(N)(=O)=O)cc1)C(=O)N2	3.35

Look at this molecule and give its reported inhibition. "Clc1ccc(-c2nn3ncccc3c2-c2ccnc(Nc3ccccc3)n2)cc1"
0.28

Need inhibition, item "N#Cc1c(NC(=O)CN2CCOCC2)sc2c1CCCC2"
-1.25

Using the record for "CC(=O)NCc1cccc(C#Cc2cncnc2Nc2ccc(OCc3cccc(F)c3)c(Cl)c2)c1" , report its inhibition.
0.84

Param item = "COc1cccc(-c2c[nH]c3c(N/N=C/c4ccncc4)ncnc23)c1" ; retrieve measured inhibition.
1.21

###

subjectOfTest: Serine/threonine-protein kinase 26 (Homo sapiens) (UniProt Q9P289)
Sequence (Q9P289 2-416 limits assumed): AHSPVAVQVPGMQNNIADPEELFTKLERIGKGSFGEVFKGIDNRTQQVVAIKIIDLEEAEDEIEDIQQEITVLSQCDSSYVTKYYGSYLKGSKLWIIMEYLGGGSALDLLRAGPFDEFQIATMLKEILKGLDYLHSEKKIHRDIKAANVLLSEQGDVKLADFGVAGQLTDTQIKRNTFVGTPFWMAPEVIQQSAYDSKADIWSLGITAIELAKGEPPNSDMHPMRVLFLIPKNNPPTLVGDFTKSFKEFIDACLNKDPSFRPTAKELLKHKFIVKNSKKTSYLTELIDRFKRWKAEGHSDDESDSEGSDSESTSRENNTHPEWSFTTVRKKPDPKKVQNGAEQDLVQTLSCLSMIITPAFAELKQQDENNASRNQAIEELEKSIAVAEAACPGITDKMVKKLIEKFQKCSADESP
studyConditions: at 0.1 µM
Description: GSK_PKIS: MST4 mean inhibition at 0.1 uM [Nanosyn]
In this section, each of the molecules is paired with its reported inhibition.
Write the value in % as a bare number.

Solved entries (count: 5):
molecule	numericValue
CS(=O)(=O)CCNCc1ccc(-c2ccc3ncnc(Nc4ccc(OCc5ccccc5)c(C(F)(F)F)c4)c3c2)o1	-1.35
Nc1nc(-c2cccc(Cl)c2)c(-c2ccc3ncccc3n2)s1	-1.9
CN1CCC(n2cnc(-c3ccc(F)cc3)c2-c2ccnc(N)n2)CC1	-1.05
CCNC(=O)O[C@H]1CN[C@H](C#Cc2cc3ncnc(Nc4ccc(OCc5cccc(F)c5)c(Cl)c4)c3s2)C1	-1.55
COc1ccc2[nH]c3c4[nH]c5ccc(OC)cc5c4c4c(c3c2c1)C(=O)NC4=O	4.27

GET /values?readout=inhibition&system=Serine/threonine-protein kinase 26 (Homo sapiens) (UniProt Q9P289)&item= CC1=C(C(=O)Nc2cc(Cl)c3[nH]ncc3c2)C(c2ccc(C(F)(F)F)cc2)CC(=O)N1 (stereo not given)
0.06

What reported inhibition corresponds to "COc1cc(N2CCN(C(C)C)CC2)ccc1Nc1nc(Nc2ccc(F)cc2C(N)=O)c2cc[nH]c2n1" on Serine/threonine-protein kinase 26 (Homo sapiens) (UniProt Q9P289)?
0.23

Query inhibition on Serine/threonine-protein kinase 26 (Homo sapiens) (UniProt Q9P289) for "NS(=O)(=O)c1ccc(Nc2ncc(-c3ccccc3)o2)cc1"
-1.93

# returns recorded inhibition (system: Serine/threonine-protein kinase 26 (Homo sapiens) (UniProt Q9P289)) for "Nc1nc(-c2ccc(F)cc2)c(-c2ccc3ncccc3n2)s1"
0.24

Short answer please: inhibition, Serine/threonine-protein kinase 26 (Homo sapiens) (UniProt Q9P289), entry "c1ccc(-c2nc3n(c2-c2ccc4c(c2)OCO4)CCC3)nc1"
0.34

Request - read-out inhibition | tested on Serine/threonine-protein kinase 26 (Homo sapiens) (UniProt Q9P289) | molecule "Cc1ccc2c(-c3ccnc(Nc4ccccc4)n3)c(-c3ccc(F)cc3)nn2n1"
-1.05

###

subjectOfTest: Inhibitor of nuclear factor kappa-B kinase subunit alpha (Homo sapiens)
studyConditions: at 0.1 µM
Catalogue of inhibition values
Report the value in % with no unit label.

chemicalStructure	subjectOfTest	scaleUnit	numericValue
COc1cccc(-c2c[nH]c3c(N/N=C/c4ccncc4)ncnc23)c1	Inhibitor of nuclear factor kappa-B kinase subunit alpha (Homo sapiens)	%	9.76

Record request: inhibition value, item "Cc1ccc(O)cc1Nc1ccnc2cc(-c3ccccn3)ccc12"
1.97

Recorded inhibition of "CS(=O)(=O)CCNCc1coc(-c2ccc3ncnc(Nc4ccc(OCc5ccccc5)cc4)c3c2)c1" , please.
4.1

Record request: inhibition value, item "N#Cc1c(NC(=O)c2ccc(F)cc2)sc2c1CCCC2"
5.73

Please look up its inhibition: "COc1cc2c(cc1Nc1nc(Nc3ccsc3C(N)=O)c3cc[nH]c3n1)N(C(=O)CN(C)C)CCC2(C)C"
5.27

I have this molecule here, "COc1ccc2c(-c3ccnc(Nc4cccc(OC(F)(F)F)c4)n3)cnn2n1" , and I need its recorded inhibition.
4.59
